testedOn: Gal-1 (Homo sapiens, UniProt P09382)
Construct: made in house; host or cells: E. coli BL21(DE3)
Sequence (P09382 whole entry): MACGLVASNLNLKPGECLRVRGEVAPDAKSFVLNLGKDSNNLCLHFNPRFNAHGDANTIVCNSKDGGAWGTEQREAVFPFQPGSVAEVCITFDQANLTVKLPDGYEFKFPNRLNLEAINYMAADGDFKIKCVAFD
protocolSummary: Pull-down assay with immobilized protein and LSM libraries
Assay type: binding
particulars: H12 library; 1:1 binding assumed; read-out: Surface mapping KD (apparent)
attributeMeasured: Kd (µM)

[P] NC(=O)[C@H]1CCC[C@@H]1NC(=O)[C@H]1CCC[C@@H]1NC(=O)C[C@H](Cc1ccccc1)NC(=O)[C@H]1CCC[C@@H]1NC(=O)[C@H]1CCC[C@@H]1NC(=O)C[C@H](Cc1c[nH]c2ccccc12)NC(=O)[C@H]1CCC[C@@H]1NC(=O)[C@H]1CCC[C@@H]1N
[Q] CSCC[C@@H](CC(=O)N[C@H]1CCC[C@@H]1C(=O)N[C@H]1CCC[C@@H]1C(=O)N[C@H](CC(=O)N[C@H]1CCC[C@@H]1C(=O)N[C@H]1CCC[C@@H]1C(N)=O)C(C)C)NC(=O)[C@H]1CCC[C@@H]1NC(=O)[C@H]1CCC[C@@H]1N
Exercise: compare P and Q ; which one has the greater Kd? Your answer should be the label attached to the chosen record.
Q

----------
testedOn: CaM (Bos taurus, UniProt P62157)
Construct: made in house; host or cells: E. coli BL21 (DE3)
protocolSummary: Pull-down assay with immobilized protein and LSM libraries
Type: binding, bovine
particulars: H12 library; 1:2 stoichiometry assumed; read-out: Surface mapping KD (apparent)
pKd: −log10 of the molar value.
attributeMeasured: pKd

smilesRecord	testedOn	pKd
CC[C@H](C)[C@@H](CC(=O)N[C@H]1CCC[C@@H]1C(=O)N[C@H]1CCC[C@@H]1C(N)=O)NC(=O)[C@H]1CCC[C@@H]1NC(=O)[C@H]1CCC[C@@H]1NC(=O)C[C@H](CCCCN)NC(=O)[C@H]1CCC[C@@H]1NC(=O)[C@H]1CCC[C@@H]1N	CaM (Bos taurus, UniProt P62157)	3.50
CC(C)C[C@@H](CC(=O)N[C@H]1CCC[C@@H]1C(=O)N[C@H]1CCC[C@@H]1C(=O)N[C@@H](CCCNC(=N)N)CC(=O)N[C@H]1CCC[C@@H]1C(=O)N[C@H]1CCC[C@@H]1C(N)=O)NC(=O)[C@H]1CCC[C@@H]1NC(=O)[C@H]1CCC[C@@H]1N	CaM (Bos taurus, UniProt P62157)	3.63

----------
testedOn: S100B (Homo sapiens, UniProt P04271)
Construct: made in house; host or cells: Escherichia coli BL21(DE3)
Sequence (P04271 1-92): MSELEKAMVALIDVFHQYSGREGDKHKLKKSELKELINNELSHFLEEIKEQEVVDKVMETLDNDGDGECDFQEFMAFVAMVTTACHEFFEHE
protocolSummary: Competition pull-down with native ligand RSK1 (689–735)
Assay type: binding
particulars: H14 library; competitor peptide 200 µM; read-out: Surface mapping KD (apparent), competition
attributeMeasured: Kd (µM)

smilesRecord	Kd / µM
CC(C)[C@@H](CC(=O)N[C@H]1CCCC[C@@H]1C(=O)N[C@H]1CCCC[C@@H]1C(=O)N[C@@H](CCCNC(=N)N)CC(=O)N[C@H]1CCCC[C@@H]1C(N)=O)NC(=O)[C@H]1CCCC[C@@H]1N	221
CC[C@H](C)[C@@H](CC(=O)N[C@H]1CCCC[C@@H]1C(N)=O)NC(=O)[C@H]1CCCC[C@@H]1NC(=O)[C@H]1CCCC[C@@H]1NC(=O)C[C@H](Cc1ccccc1)NC(=O)[C@H]1CCCC[C@@H]1N	202
CC[C@H](C)[C@@H](CC(=O)N[C@H]1CCCC[C@@H]1C(N)=O)NC(=O)[C@H]1CCCC[C@@H]1NC(=O)[C@H]1CCCC[C@@H]1NC(=O)C[C@H](C)NC(=O)[C@H]1CCCC[C@@H]1N	238
C[C@@H](CC(=O)N[C@H]1CCCC[C@@H]1C(N)=O)NC(=O)[C@H]1CCCC[C@@H]1NC(=O)[C@H]1CCCC[C@@H]1NC(=O)C[C@H](Cc1c[nH]c2ccccc12)NC(=O)[C@H]1CCCC[C@@H]1N	220
C[C@@H](O)[C@@H](CC(=O)N[C@H]1CCCC[C@@H]1C(N)=O)NC(=O)[C@H]1CCCC[C@@H]1NC(=O)[C@H]1CCCC[C@@H]1NC(=O)C[C@H](Cc1c[nH]c2ccccc12)NC(=O)[C@H]1CCCC[C@@H]1N	242

The origin of these recorded values is paper PMC8162404.
